The measured values listed here are drawn from the supplement of paper PMC10567573.

B1: RSPH3 (parent)
chain: QRLEEQERRHREEKERRKKQQWEI

- Variants of: B1
- assay: protein stability index of a GFP-peptide fusion (GPS, HEK-293T) (PSI 1-6); higher = more stable;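 also: lentivirally expressed fusions sorted by FACS into six bins by GFP to DsRed ratio, PSI derived from sequencing read proportions per bin multiplied by bin number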
- run-parameters: c terminus: a fixed tail appended
The label depends only on protein stability index: met if it is at least 4, not met if it is smaller.

mutation-string: E12G
assigned-label: met
//
mutation-string: R2T
assigned-label: met
//
mutation-string: R8C
assigned-label: not met
//
mutation-string: W22E
assigned-label: met
//
mutation-string: I24N
assigned-label: met
//
mutation-string: R9Y
assigned-label: met
//
mutation-string: R2Q
assigned-label: met
//
mutation-string: R9E
assigned-label: met
//
mutation-string: Q1H
assigned-label: met
//
mutation-string: E7S
assigned-label: not met
//
mutation-string: E5F
assigned-label: not met
//
mutation-string: R2L
assigned-label: met
//
mutation-string: E5H
assigned-label: met
//
mutation-string: Q21W
assigned-label: met
//
mutation-string: Q20A
assigned-label: met
//
mutation-string: Q6H
assigned-label: met
//
mutation-string: K14C
assigned-label: met
//
mutation-string: R9P
assigned-label: met
//
mutation-string: Q21F
assigned-label: met
//
mutation-string: R17S
assigned-label: met
//
mutation-string: Q20H
assigned-label: met
//
mutation-string: R2C
assigned-label: met
//
mutation-string: R9Q
assigned-label: met
//
mutation-string: E15Q
assigned-label: met
//
mutation-string: Q21R
assigned-label: met
//
mutation-string: L3T
assigned-label: met
//
mutation-string: R11G
assigned-label: met
//
mutation-string: Q1P
assigned-label: met
//
mutation-string: E13A
assigned-label: not met
//
mutation-string: E5A
assigned-label: met
//
mutation-string: Q20C
assigned-label: met
//
mutation-string: K18G
assigned-label: met
//
mutation-string: I24G
assigned-label: met
//
mutation-string: I24F
assigned-label: met
//
mutation-string: R9I
assigned-label: met
//
mutation-string: Q21Y
assigned-label: met
//
mutation-string: R11L
assigned-label: met
//
mutation-string: K14N
assigned-label: met
//
mutation-string: E15Y
assigned-label: not met
//
mutation-string: R17C
assigned-label: met
//
mutation-string: Q6E
assigned-label: met
//
mutation-string: K18P
assigned-label: met
//
mutation-string: Q20P
assigned-label: met
//
mutation-string: R16T
assigned-label: met
//
mutation-string: R16Q
assigned-label: met
//
mutation-string: R8F
assigned-label: met
//
mutation-string: R11K
assigned-label: met
//
mutation-string: E23D
assigned-label: met
//
mutation-string: K19S
assigned-label: met
//
mutation-string: E15V
assigned-label: met
//
mutation-string: E23A
assigned-label: not met
//
mutation-string: Q6A
assigned-label: met
//
mutation-string: K14S
assigned-label: not met
//
mutation-string: L3C
assigned-label: met
//
mutation-string: E7I
assigned-label: not met
//
mutation-string: K14E
assigned-label: met
//
mutation-string: Q20K
assigned-label: met
//
mutation-string: Q20D
assigned-label: met
//
mutation-string: H10R
assigned-label: not met
//
mutation-string: Q20G
assigned-label: met
//
mutation-string: E23I
assigned-label: not met
//
mutation-string: L3K
assigned-label: met
//
mutation-string: E13W
assigned-label: not met
//
mutation-string: E13H
assigned-label: met
//
mutation-string: Q1E
assigned-label: met
//
mutation-string: L3F
assigned-label: met
//
mutation-string: E4A
assigned-label: met
//
mutation-string: Q1F
assigned-label: met
//
mutation-string: I24D
assigned-label: met
//
mutation-string: E7Y
assigned-label: not met
//
mutation-string: L3N
assigned-label: met
//
mutation-string: Q21L
assigned-label: met
//
mutation-string: E13F
assigned-label: not met
//
mutation-string: R8Y
assigned-label: met
//
mutation-string: E5R
assigned-label: met
//
mutation-string: R16P
assigned-label: met
//
mutation-string: R16D
assigned-label: met
//
mutation-string: E7F
assigned-label: met
